Data origin, for the record: patent US20080075726A1

# MEASURED TARGET: T1, recombinant human IL-6 (human, UniProt P05231 30-212, limits assumed)
# T1 construct: also called rhIL6; human recombinant IL-6
# PROTOCOL: competition ELISA, rhIL-6 in solution against captured IL-6
Measured IC50, listed per entry.
Numbers only; they are read as nM.

Below are worked cases with known answers.
INPUT: Assign IC50 to the following record: mAb 1337 (antibody, V domains shown) VH: QVTLKESGPTLVKPTQTLTLTCSFSGFSLSTSGVGVGWVRQPPGKALEWLAFIWWDDDKYYSPSLESRLTITKDTSKNQVVLTMTNMDPVDTATYYCARSADDYLYYSFDTWGQGTLVT VL: DIQMTQSPSSLSAFVGDGVTMTCWASQSINDYLNWYHQRPGEAPELLVFAASNLQIGVPSRFRGSGSETYFTLTINSLQPEDSGTYFCQHGHSFPLTFGGGTKLEI
OUTPUT: 0.047

INPUT: Given the binder mAb 239 (antibody, V domains shown) VH: QVTLKESGPTLVKPTQTLTLTCIFSGFSFKTSGVSVGWIRQPPGKALEWLALIYWDDDKRYSPSLKNRLTITRDTSKNQVVLTMTNMDPVDTATYYCARSYDDYLYYALDYWGQGTLVT VL: DVVMTQSPSSVSASVGDRVTITCRASQDIDNFLAWYQQKPGKAPNLLIYKVSSLRSGVPSRFSGSRSGTDFTLTITSLQPEDFATYFCQQTRRFPLTFGPGTKLE , write its reported IC50.
OUTPUT: 9.6

More entries:
INPUT: Report measured IC50; entry is mAb 770 (antibody, V domains shown) VH: QVTLKESGPTLVKPTQTLTLTCSFSGFSLSTSGVGVGWVRQPPGKALEWLAFIFWDDDKYYSPSLESRLTITKDTSKNQVVLTMTNMDPVDTATYYCARSYDDYLYYALDYWGQGTLVT VL: DIQMTQSPSSLSAFVGDGVTMTCWASQSINDYLNWYHQRPGEAPELLVFAASNLQIGVPSRFRGSGSETYFTLTINSLQPEDSGTYFCQHGHSFPLTFGGGTKLEI
OUTPUT: 0.12
